- System: SARS-CoV-2
- test.description: SARS-CoV-2 antiviral assay (dose-response, automated confocal imaging of infected cells)
- Assay type: cell-based, severe acute respiratory syndrome coronavirus-2
- reported.conditions: Severe acute respiratory syndrome coronavirus 2, 16 h, SARS-CoV-2, Vero81-derived F1G-red cells, MOI 0.2, 16 h, compounds at 1.56-25 µM
pIC50: −log10 of the molar value.
endpoint.name: pIC50

Study these solved cases before continuing.
compound: CCCC(=O)C1=C(O)C(CC=C(C)C)=C(O)C(CC=C(C)C)(CC=C(C)C)C1=O [AH10-F2]
pIC50: > 4.85
--
compound: CCC(C)CC(=O)C1=C(O)C(CC=C(C)C)=C(O)C(CC=C(C)C)(CC=C(C)C)C1=O (stereo not shown) [AH40-F1]
pIC50: < 4.60
--
compound: CC(C)=CCC1(CC=C(C)C)C(=O)C(C(=O)C(C)C)=C(O)C(C(=O)C(C)C)=C1O [AH66-F1]
pIC50: > 4.60

Moving on to the next compound.
Data request: Give its pIC50 value. Item: CC(C)=CCC1=C(O)C(CC=C(C)C)(CC=C(C)C)C(=O)C(C(=O)C(C)C)=C1O [AH15-F1]
Data returned: > 4.85
